Here, each record is paired with measured IC50 data.
- Target desc: B-Raf (Homo sapiens)
- Sequence (P15056 whole entry): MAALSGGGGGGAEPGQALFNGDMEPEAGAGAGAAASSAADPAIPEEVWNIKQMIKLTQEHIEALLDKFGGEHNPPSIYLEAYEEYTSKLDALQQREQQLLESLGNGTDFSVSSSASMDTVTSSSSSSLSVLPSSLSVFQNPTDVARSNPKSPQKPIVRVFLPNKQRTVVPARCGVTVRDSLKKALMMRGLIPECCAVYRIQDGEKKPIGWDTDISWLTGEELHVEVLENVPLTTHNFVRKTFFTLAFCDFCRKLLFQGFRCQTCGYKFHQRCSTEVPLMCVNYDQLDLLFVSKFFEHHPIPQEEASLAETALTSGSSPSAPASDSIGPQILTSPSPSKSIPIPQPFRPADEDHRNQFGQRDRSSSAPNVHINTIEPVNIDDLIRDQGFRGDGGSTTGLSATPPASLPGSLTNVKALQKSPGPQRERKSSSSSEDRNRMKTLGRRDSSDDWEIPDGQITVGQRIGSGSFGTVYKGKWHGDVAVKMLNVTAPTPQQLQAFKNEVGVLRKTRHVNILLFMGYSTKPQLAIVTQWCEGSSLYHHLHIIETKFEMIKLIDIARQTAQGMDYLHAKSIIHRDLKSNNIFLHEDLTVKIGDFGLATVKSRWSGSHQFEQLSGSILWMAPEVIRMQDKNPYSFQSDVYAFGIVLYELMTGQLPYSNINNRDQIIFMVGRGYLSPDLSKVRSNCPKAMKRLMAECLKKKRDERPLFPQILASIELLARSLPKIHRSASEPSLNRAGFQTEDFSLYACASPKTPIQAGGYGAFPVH
- Experiment description: Luciferase-coupled chemiluminescence kinase assay (ATP consumption), B-Raf
- Assay type: biochemical
- Stated conditions: read-out: bRaf IC50

Solved entries:
1. CCOC(=O)Nc1nc2cc(C3(O)c4ccccc4C(=O)N3Cc3ccccc3)ccc2[nH]1 (centres unmarked) | ≥ 10000 nM
2. COC(=O)Nc1nc2cc(C3(O)c4ccccc4C(=O)N3c3ccc(F)c(Br)c3)ccc2[nH]1 (centres unmarked) | < 100 nM
3. C#Cc1cccc(N2C(=O)c3ccccc3C2(O)c2ccc3[nH]c(NC(=O)OC)nc3c2)c1 (centres unmarked) | < 100 nM

**Q:** Look at this molecule and give its reported IC50. `O=C1COc2ccc(C(=O)c3ccccc3-c3nc4ccccc4[nH]3)cc2N1`
**A:** ≥ 10000 nM

**Q:** Next: COC(=O)Nc1nc2cc(C3(O)c4ccccc4C(=O)N3Cc3ccncc3)ccc2[nH]1 (centres unmarked)
**A:** ≥ 10000 nM

**Q:** Moving on to the next molecule: COC(=O)Nc1nc2cc(C3(O)c4ccccc4C(=O)N3c3ccc(Br)cc3)ccc2[nH]1 (centres unmarked)
**A:** 100 to 1000 nM

**Q:** # iterate: CCNC(=O)Nc1nc2cc(C3(O)c4ccccc4C(=O)N3Cc3ccccc3)ccc2[nH]1 (centres unmarked)
**A:** < 100 nM

**Q:** Consider next the molecule COC(=O)Nc1nc2cc(C3(O)c4ccccc4C(=O)N3c3cc(Br)ccc3F)ccc2[nH]1 (centres unmarked) in the same way.
**A:** < 100 nM
